- tested_system: human GLP-1 receptor (human, UniProt P43220 24-463)
- Sequence (P43220 24-463): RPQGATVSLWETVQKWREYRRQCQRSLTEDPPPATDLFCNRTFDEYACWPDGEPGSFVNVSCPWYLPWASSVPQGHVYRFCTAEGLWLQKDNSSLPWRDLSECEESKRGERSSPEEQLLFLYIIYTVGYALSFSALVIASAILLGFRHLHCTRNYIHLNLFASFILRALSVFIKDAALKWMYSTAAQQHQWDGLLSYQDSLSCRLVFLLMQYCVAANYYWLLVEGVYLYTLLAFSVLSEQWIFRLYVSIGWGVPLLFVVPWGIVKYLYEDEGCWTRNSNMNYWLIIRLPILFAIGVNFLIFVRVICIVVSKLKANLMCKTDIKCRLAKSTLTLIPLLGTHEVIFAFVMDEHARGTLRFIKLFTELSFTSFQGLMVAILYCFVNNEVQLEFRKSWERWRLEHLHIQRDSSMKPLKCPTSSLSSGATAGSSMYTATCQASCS
- assay_procedure: cell-based or functional assay
Groups on a side chain read outwards from the residue. No end group written: not given here. maleimide = maleimide group of a PEG-maleimide, coupled to the cysteine thiol (thioether); mPEG 20 kDa = 20 kD mPEG-maleimide, thioether-linked to the Cys; branched PEG 40 kDa = branched polyethylene glycol of 40 kDa
Give EC50 human for every item shown.
Put your answer as a value accompanied by its unit after it.

Query :: # query: EC50 human of entry HGEGTFTSDVSSYLEGC(PEG 30 kDa)AAKEFIAWLVKGRG [cgGLP-7 (SEQ ID NO: 6 + 30k PEG)]
Result :: 0.2 nM

Query :: Also HGEGTFTSDVSSYLEGCAAKEFIAWLVKGRG (modifications not checked) [cgGLP-9 (SEQ ID NO: 6 + 20k PEG dimer)] , if possible.
Result :: 1 nM

Query :: Entry to check: HGEGTFTSDVSSYLEGC([maleimide-mPEG 20 kDa])AAKEFIAWLVKGRG [cgGLP-1 (SEQ ID NO: 6 + 20K PEG)]
Result :: 12 nM

Query :: Same thing, different binder: HGEGTFTSDVSSYLEGC(branched PEG 40 kDa)AAKEFIAWLVKGRG [cgGLP-2 (SEQ ID NO: 6 + 40k branched PEG)]
Result :: 0.7 nM
